Molecular target: T1, Human IL-2Rβ ECD (human, UniProt P14784 27-240, biotinylated (site not stated))
T1 construct: extracellular domain; Biotinylated and held on a streptavidin chip for SPR; also called biotinylated human IL-2Rβ ECD
T1 sequence (looked up): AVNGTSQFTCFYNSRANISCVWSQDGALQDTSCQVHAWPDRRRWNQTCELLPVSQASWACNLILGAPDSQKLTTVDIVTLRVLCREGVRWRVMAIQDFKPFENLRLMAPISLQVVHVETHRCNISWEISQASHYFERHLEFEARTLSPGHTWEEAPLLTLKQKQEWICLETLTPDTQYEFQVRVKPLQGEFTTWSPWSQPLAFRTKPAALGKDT
Assay: SPR; biotinylated human IL-2Rβ ECD on streptavidin chip, VHH as analyte; KD from fit to steady-state responses [Cont.]
EXPERIMENTAL READOUT: Kd
// return the numeric value with its unit appended

Below: 2 binders and their reported Kd.
[
  {
    "BINDER": "2Rβ-VHH4 (VHH) VHH: QVQLQESGGGSVQAGGSLRLSCAASGSTSCSSVMRWYRQAPGKEREFVSSINSDRRTVYADSVKGRFTISQDNAKSTLYLQMNSLKAEDTATYYCQRELYGDSWCQGNYWGQGTQVTVSS",
    "Kd": "123 nM"
  },
  {
    "BINDER": "2Rβ-VHH3 (VHH) VHH: QVQLQESGGGSVQAGGSLRLSCTASGFTFDDEDMGWYRQAPGNECELVSSIGSLGRRYYADSVKDRFAISQDNAKNTVYLQMNSLKPEDTAVYYCAATKGGSWLDSILASCQGAFGYWGQGTQVTVSS",
    "Kd": "20.2 nM"
  }
]

// for each binder below, give its Kd
1. 2Rβ-VHH6 (VHH, also called IL-2Rβ-VHH6) VHH: QVQLQESGGGSVQAGGSLRLSCAASSYTISSVCMGWFRQAPGKEREGVAGIAPDGSTGYGDSVKGRFTISKDNAKNTLYLQMNSLKPEDTAMYYCAAASPGRCFLPRTALEPALYYNWGQGTQVTVSS
2. 2Rβ-VHH1 (VHH, also called IL-2Rβ-specific VHH clone 1) VHH: QVQLQESGGGSVQAGGSLRLSCVTSGYTYSSANMAWFRQAPGKEREGVAIITPSGRATTYADSVKGRFTISRDNAANTLYLQMNSLKPEDTAMYYCAADTPPYSGLWYAERTYNYWGQGTQVTVSS

a:
1. 25 nM
2. 10.9 nM
